List of pEC50 values.
- measured-on: TLR8 (Homo sapiens, UniProt Q9NR97)
- Sequence (Q9NR97 27-1041): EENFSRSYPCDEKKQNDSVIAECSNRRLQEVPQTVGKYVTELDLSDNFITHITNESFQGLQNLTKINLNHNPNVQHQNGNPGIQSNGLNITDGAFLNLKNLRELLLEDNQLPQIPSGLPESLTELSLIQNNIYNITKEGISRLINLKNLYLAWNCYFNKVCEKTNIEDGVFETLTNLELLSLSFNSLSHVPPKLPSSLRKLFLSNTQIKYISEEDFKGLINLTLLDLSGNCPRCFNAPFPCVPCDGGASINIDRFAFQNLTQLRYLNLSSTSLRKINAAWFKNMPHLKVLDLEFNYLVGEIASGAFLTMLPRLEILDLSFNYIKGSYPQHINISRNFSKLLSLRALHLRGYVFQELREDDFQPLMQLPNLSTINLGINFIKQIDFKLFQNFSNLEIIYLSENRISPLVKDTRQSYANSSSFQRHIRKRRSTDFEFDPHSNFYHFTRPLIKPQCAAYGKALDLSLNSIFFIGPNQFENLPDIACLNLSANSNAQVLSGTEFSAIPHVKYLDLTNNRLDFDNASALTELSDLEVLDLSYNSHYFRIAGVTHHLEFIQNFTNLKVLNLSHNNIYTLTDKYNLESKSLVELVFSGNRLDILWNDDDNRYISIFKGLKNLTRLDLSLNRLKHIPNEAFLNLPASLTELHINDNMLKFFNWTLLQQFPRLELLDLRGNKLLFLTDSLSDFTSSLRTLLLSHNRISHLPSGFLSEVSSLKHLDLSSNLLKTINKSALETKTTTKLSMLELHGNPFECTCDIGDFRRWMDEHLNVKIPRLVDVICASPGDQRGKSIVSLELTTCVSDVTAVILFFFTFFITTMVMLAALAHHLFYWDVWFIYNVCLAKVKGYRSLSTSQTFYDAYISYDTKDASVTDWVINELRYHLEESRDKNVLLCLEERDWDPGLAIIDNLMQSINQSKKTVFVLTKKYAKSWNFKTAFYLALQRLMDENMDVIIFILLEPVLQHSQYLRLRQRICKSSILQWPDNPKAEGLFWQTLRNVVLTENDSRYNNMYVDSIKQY
- assay-explanation: PBMC assay for TLR8 (TNFα in supernatants by ELISA)
- Format: cell-based
- Parameters: Peripheral blood mononuclear cells (PBMCs) from human blood were isolated; endogenous in cells; host or cells: human PBMCs
- test-settings: human PBMCs incubated with compound overnight, MC50 = concentration at which 50% of the maximum induction is seen
- Experimental: Peripheral blood mononuclear cells (PBMCs) from human blood were isolated using BD Vacutainer Cell Preparation Tubes with sodium citrate. Cells were incubated with compound overnight. TLR8 activity was assayed by measuring the amount of TNFα in supernatants by ELISA. TLR7 activity was assayed by measuring the amount of IFNα in supernatants by ELISA (R&D Systems). […] The results of this assay are shown below in Tables 2 and 3. […]
pEC50: −log10 of the molar value. Counter-ions that a name gives are not always drawn.

molecule | measured-on | pEC50
CCCN(CCOC)C(=O)C1=Cc2ccc(-c3ccc(C(=O)N4CCCC4)cc3)cc2N=C(N)C1 | TLR8 (Homo sapiens, UniProt Q9NR97) | 6.00 to 7.00
CCCN(CCC)C(=O)C1=Cc2ccc(-c3ccc(C#N)cc3)cc2N=C(N)C1 | TLR8 (Homo sapiens, UniProt Q9NR97) | 7.00 to 9.00
COCCN(CCOC)C(=O)C1=Cc2ccc(-c3ccc(C(=O)N4CCCC4)cc3)cc2N=C(N)C1 | TLR8 (Homo sapiens, UniProt Q9NR97) | 5.00 to 6.00
CCOC(=O)C1=Cc2ccc(-c3cccc(C(=O)N(C)C)c3)cc2N=C(N)C1 | TLR8 (Homo sapiens, UniProt Q9NR97) | 6.00 to 7.00
CCCN(CCC)C(=O)C1=Cc2ccc(-c3ccc(C(=O)N(CC)CC)cc3)cc2N=C(N)C1 | TLR8 (Homo sapiens, UniProt Q9NR97) | 6.00 to 7.00
CCCN(Cc1ccccc1O)C(=O)C1=Cc2ccc(-c3ccc(C(=O)N4CCCC4)cc3)cc2N=C(N)C1 [Compound 174, hydrochloride] | TLR8 (Homo sapiens, UniProt Q9NR97) | 6.00 to 7.00
CCCN(CCC)C(=O)C1=Cc2ccc(-c3ccccc3C(=O)OCC)cc2N=C(N)C1 | TLR8 (Homo sapiens, UniProt Q9NR97) | 6.00 to 7.00
CCCN(CCC)C(=O)C1=Cc2ccc(-c3ccc(C(=O)OCC)c(F)c3)cc2N=C(N)C1 | TLR8 (Homo sapiens, UniProt Q9NR97) | 6.00 to 7.00
CCCN(CCC)C(=O)C1=Cc2ccc(-c3ccc(C(=O)OC)nc3)cc2N=C(N)C1 | TLR8 (Homo sapiens, UniProt Q9NR97) | 6.00 to 7.00
CCCN(CCC)C(=O)C1=Cc2ccc(-c3cccc(C(=O)OCC)c3)cc2N=C(N)C1 | TLR8 (Homo sapiens, UniProt Q9NR97) | 6.00 to 7.00
CCCN(CCCO)C(=O)C1=Cc2ccc(-c3ccc(C(=O)OCC)c(F)c3)cc2N=C(N)C1 | TLR8 (Homo sapiens, UniProt Q9NR97) | 6.00 to 7.00
CCCN(CC(C)O)C(=O)C1=Cc2ccc(-c3ccc(C(=O)N4CCCC4)cc3)cc2N=C(N)C1 (centres unmarked) | TLR8 (Homo sapiens, UniProt Q9NR97) | 7.00 to 9.00
CCOC(=O)C1=Cc2ccc(-c3ccc(C(=O)N4CCCCC4)cc3)cc2N=C(N)C1 | TLR8 (Homo sapiens, UniProt Q9NR97) | 6.00 to 7.00
CCCN(CCC)C(=O)C1=Cc2ccc(-c3ccc(C(=O)OCC)cc3)cc2N=C(N)C1 | TLR8 (Homo sapiens, UniProt Q9NR97) | 6.00 to 7.00

Source of measurements: patent US8524702B2
